Biological target: factor Xa (Homo sapiens, UniProt P00742)
Construct: Human factors X, Xa, IXa, XIa, and XIIa are purchased from Enzyme Research Laboratories; purchased Enzyme Research Laboratories, South Bend, Ind
Sequence (P00742 235-488 limits assumed): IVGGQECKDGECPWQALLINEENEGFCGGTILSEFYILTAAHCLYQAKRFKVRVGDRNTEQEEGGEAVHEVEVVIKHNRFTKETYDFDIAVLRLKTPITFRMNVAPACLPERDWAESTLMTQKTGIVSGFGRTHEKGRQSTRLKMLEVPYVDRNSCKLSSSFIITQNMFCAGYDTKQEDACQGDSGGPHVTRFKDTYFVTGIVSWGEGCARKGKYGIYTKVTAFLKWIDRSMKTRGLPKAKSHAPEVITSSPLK
Sequence (P00742 41-179 partner limits assumed): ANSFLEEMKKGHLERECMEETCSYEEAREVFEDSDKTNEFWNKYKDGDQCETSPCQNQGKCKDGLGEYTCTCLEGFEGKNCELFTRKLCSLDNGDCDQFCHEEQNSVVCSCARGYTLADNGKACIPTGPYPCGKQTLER
Test: Serine protease inhibition (Kass), factor Xa
Assay type: biochemical
Non-standard residues stand in square brackets, D forms with d. Residues, ends and D or L forms follow the SMILES beside them. dCha = N[C@H](CC1CCCCC1)C(=O)O
So basically: Kass Xa at 0.2 L/mol × 10^6 or higher? That is TRUE. Lower than 0.2 L/mol × 10^6? That is FALSE.

[[record]]
compound = "CCOC(=O)NC(CC)(Cc1ccccc1)C(=O)N1CCC[C@H]1C(=O)N[C@H](C=O)CCCNC(=N)N.Cl (stereo partly shown)"
category = "FALSE"

[[record]]
compound = "CCOC(=O)N[C@H](Cc1ccccc1)C(=O)N1CCC[C@H]1C(=O)N[C@H](C=O)CCCNC(=N)N.Cl"
category = "TRUE"

[[record]]
compound = "COc1ccc(OC)c(S(=O)(=O)N[C@H](Cc2ccccc2)C(=O)N2CCC[C@H]2C(=O)N[C@H](C=O)CCCNC(=N)N)c1.Cl"
category = "TRUE"

[[record]]
compound = "Cl.Cl.Cn1c(C(=O)N[C@](C)(Cc2ccccc2)C(=O)N2CCC[C@H]2C(=O)N[C@H](C=O)CCCNC(=N)N)cc2ccccc21"
category = "FALSE"

[[record]]
compound = "CCCCC(CCCC)(NC(=O)OCC)C(=O)N1CCC[C@H]1C(=O)N[C@H](C=O)CCCNC(=N)N.Cl"
category = "TRUE"

[[record]]
compound = "CC(=O)N[C@H](CC1CCCCC1)C(=O)N1CCC[C@H]1C(=O)N[C@H](C=O)CCCNC(=N)N.Cl [Example 72] (Ac-[dCha]-Pro-Arg-aldehyde)"
category = "TRUE"

[[record]]
compound = "Cl.N=C(N)NCCC[C@@H](C=O)NC(=O)[C@@H]1CCCN1C(=O)[C@@H](Cc1ccccc1)NS(=O)(=O)c1ccc(F)cc1F"
category = "TRUE"

